- Type: in vivo, human
- test parameters: subject S02; 8 h iv infusion of d5-ALA-albumin 0.78 mg/kg BW/hr
Quick reference: Time at Smax of the listed items.
# value in min; strip the unit string

Examples with answers:
# structure smiles string, Time at Smax, min
records = [
    ("CC/C=C\\C/C=C\\C/C=C\\C/C=C\\C/C=C\\CCCC(=O)O", 215),
    ("CC/C=C\\C/C=C\\C/C=C\\C/C=C\\C/C=C\\CCCCCC(=O)O", 156),
    ("[2H]C([2H])([2H])C([2H])([2H])/C=C\\C/C=C\\C/C=C\\C/C=C\\C/C=C\\CCCCCC(=O)O", 156),
    ("CC/C=C\\C/C=C\\C/C=C\\C/C=C\\C/C=C\\C/C=C\\CCC(=O)O", 125),
]

Item: `CC/C=C\C/C=C\C/C=C\C/C=C\C/C=C\CCCCCCCC(=O)O` | Time at Smax: 150

----------
- protocol description: Plasma unlabeled fatty acid concentrations
- Format: in vivo, human
- test parameters: subject S02; unlabeled; mean of 17 time points; low linoleate diet
Response field class: enum, chosen by comparing Fatty acid concentration in plasma total lipids (mean) against class 0 = under 9 nmol/mL, class 1 = from 9 nmol/mL up to 20 nmol/mL, class 2 = 20 nmol/mL and over

Use the examples below as a reference point.
# compound, group label
measured = [
    ("CCCCCCCCCCCCCCCCCCCCCC(=O)O [22:0]", "class 1"),
    ("CCCCC/C=C\\C/C=C\\C/C=C\\CCCCC(=O)O [18:3n-6]", "class 1"),
    ("CCCCCCCCCCCCCCCCCCCCCCCC(=O)O [24:0]", "class 1"),
    ("CC/C=C\\C/C=C\\C/C=C\\CCCCCCCC(=O)O [ALA, α-linolenic acid]", "class 2"),
    ("CCCCCC/C=C/CCCCCCCCCC(=O)O [18:1n-7]", "class 2"),
]

For this compound, which bin applies? CCCCC/C=C\C/C=C\C/C=C\C/C=C\C/C=C\CCC(=O)O [22:5n-6]
class 0

For this compound, which bin applies? CCCCCCCC/C=C\CCCCCCCCCC(=O)O [20:1n-9]
class 1

For this compound, which bin applies? CCCCCCCC/C=C\CCCCCCCCCCCCCC(=O)O [24:1n-9]
class 2

For this compound, which bin applies? CCCCC/C=C\C/C=C\C/C=C\C/C=C\CCCCCC(=O)O [22:4n-6]
class 0
